Just for reference, ChEMBL document CHEMBL4406822 is where these values come from.

test: Stability in human liver microsomes; format: ADME, Microsome; settings: read-out: Stability
Everything with microsomal CLint lower than 10 µL/min/mg is Criterion not met; everything else, including exactly 10 µL/min/mg, is Criterion met.

Before answering, review these 6 worked examples.
C[C@H](CC[C@H](O)C(F)(F)F)[C@H]1CC[C@H]2[C@@H]3CC=C4C[C@@](C)(O)CC[C@]4(C)[C@H]3CC[C@]12C :: Criterion not met
C[C@H](CC[C@@H](C)O)[C@H]1CC[C@H]2[C@@H]3CC=C4C[C@@](C)(O)CC[C@]4(C)[C@H]3CC[C@]12C :: Criterion met
C[C@H](CCC(C)(C)O)[C@H]1CC[C@H]2[C@@H]3CC=C4C[C@@](C)(O)CC[C@]4(C)[C@H]3CC[C@]12C :: Criterion met
C[C@@H]([C@H]1CC[C@H]2[C@@H]3CC=C4C[C@@H](O)CC[C@]4(C)[C@H]3CC[C@]12C)C(C)(C)O :: Criterion not met
C[C@H](CC(C)(C)O)[C@H]1CC[C@H]2[C@@H]3CC=C4C[C@@H](O)CC[C@]4(C)[C@H]3CC[C@]12C :: Criterion met
C[C@H](CC[C@@H](O)C(F)(F)F)[C@H]1CC[C@H]2[C@@H]3CC=C4C[C@@](C)(O)CC[C@]4(C)[C@H]3CC[C@]12C :: Criterion not met

Q) Entry CC[C@H](O)CC[C@@H](C)[C@H]1CC[C@H]2[C@@H]3CC=C4C[C@@](C)(O)CC[C@]4(C)[C@H]3CC[C@]12C : is its microsomal CLint no less than 10 µL/min/mg?
A) Criterion met

Q) Given the entry C[C@H](O)CC[C@@H](C)[C@H]1CC[C@H]2[C@@H]3CC=C4C[C@@](C)(O)CC[C@]4(C)[C@H]3CC[C@]12C , answer whether its microsomal CLint meets or surpasses 10 µL/min/mg.
A) Criterion not met

Q) I'd appreciate it if you could say whether C[C@H](CCCO)[C@H]1CC[C@H]2[C@@H]3CC=C4C[C@@H](O)CC[C@]4(C)[C@H]3CC[C@]12C has microsomal CLint at least equal to 10 µL/min/mg.
A) Criterion met

Q) API: above_or_equal(metric=microsomal CLint, cutoff=10 µL/min/mg) for item CC(C)[C@H](O)CC[C@@H](C)[C@H]1CC[C@H]2[C@@H]3CC=C4C[C@@H](O)CC[C@]4(C)[C@H]3CC[C@]12C
A) Criterion met

Q) Evaluate C[C@H](CC[C@H](O)C1CCC1)[C@H]1CC[C@H]2[C@@H]3CC=C4C[C@@](C)(O)CC[C@]4(C)[C@H]3CC[C@]12C : microsomal CLint at minimum 10 µL/min/mg?
A) Criterion not met

###

biological target: Glutamate NMDA receptor; GRIN1/GRIN2B (Homo sapiens, UniProt Q05586+Q13224); assay: Positive allosteric modulation of recombinant human GluN1/GluN2B receptor stably expressed in HEK293 cells assessed as increase in glycine/L-glutamate-induced channel current at -70 mV holding potential by IonWork […] method
Sequence (Q13224 whole entry, other chains not shown): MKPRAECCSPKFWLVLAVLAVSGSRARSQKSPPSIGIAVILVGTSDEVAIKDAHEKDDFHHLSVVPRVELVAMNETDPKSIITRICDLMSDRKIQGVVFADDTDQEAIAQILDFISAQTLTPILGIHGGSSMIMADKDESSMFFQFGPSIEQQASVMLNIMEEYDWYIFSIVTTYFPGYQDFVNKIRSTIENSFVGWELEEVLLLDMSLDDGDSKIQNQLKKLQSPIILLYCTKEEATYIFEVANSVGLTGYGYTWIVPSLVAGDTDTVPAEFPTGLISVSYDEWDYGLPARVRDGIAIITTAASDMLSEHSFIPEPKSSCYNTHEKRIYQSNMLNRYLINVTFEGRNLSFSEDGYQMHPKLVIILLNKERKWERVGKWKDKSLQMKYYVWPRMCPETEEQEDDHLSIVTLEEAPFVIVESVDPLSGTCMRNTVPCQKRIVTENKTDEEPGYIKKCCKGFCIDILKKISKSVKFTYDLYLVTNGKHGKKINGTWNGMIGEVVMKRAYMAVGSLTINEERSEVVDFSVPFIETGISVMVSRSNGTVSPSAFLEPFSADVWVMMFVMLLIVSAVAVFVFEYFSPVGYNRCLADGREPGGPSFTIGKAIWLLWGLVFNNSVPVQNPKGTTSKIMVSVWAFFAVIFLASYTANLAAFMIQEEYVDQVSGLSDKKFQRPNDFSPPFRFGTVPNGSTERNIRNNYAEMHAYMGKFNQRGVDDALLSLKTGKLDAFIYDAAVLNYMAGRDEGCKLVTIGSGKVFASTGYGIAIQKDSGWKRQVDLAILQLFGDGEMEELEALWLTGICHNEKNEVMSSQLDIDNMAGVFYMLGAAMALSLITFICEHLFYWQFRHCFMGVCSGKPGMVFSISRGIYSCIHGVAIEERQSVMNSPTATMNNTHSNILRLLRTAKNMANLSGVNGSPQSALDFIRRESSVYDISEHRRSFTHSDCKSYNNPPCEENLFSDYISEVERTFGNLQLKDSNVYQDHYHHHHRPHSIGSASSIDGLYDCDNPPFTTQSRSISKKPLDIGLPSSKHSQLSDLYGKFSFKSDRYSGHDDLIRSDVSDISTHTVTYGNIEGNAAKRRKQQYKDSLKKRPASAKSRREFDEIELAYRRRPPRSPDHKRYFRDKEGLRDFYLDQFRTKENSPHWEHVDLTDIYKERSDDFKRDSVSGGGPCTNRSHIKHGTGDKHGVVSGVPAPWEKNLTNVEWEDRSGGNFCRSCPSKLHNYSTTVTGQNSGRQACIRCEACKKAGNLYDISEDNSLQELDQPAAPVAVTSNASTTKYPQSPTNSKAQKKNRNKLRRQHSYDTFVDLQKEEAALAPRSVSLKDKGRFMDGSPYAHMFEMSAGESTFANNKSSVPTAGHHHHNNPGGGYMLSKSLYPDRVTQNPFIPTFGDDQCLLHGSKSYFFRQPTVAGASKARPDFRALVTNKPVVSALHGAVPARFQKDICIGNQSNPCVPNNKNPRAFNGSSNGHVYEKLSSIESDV
Rule: measured EC50 below 400 nM gets Met; anything equal to or greater than 400 nM gets Not met.

Completed entries (count: 2):
C[C@H](CC[C@H](O)C(F)(F)F)[C@H]1CC[C@H]2[C@@H]3CC=C4C[C@@](C)(O)CC[C@]4(C)[C@H]3CC[C@]12C :: Met
CC(C)[C@@H](O)CC[C@@H](C)[C@H]1CC[C@H]2[C@@H]3CC=C4C[C@@H](O)CC[C@]4(C)[C@H]3CC[C@]12C :: Not met

Q) Does the reported EC50 of the following compound sit strictly below 400 nM? COC(C)(C)CC[C@@H](C)[C@H]1CC[C@H]2[C@@H]3CC=C4C[C@@](C)(O)CC[C@]4(C)[C@H]3CC[C@]12C
A) Not met

Q) Item C[C@H](CCC(C)(C)O)[C@H]1CC[C@H]2[C@@H]3CC=C4C[C@](C)(O)CC[C@]4(C)[C@H]3CC[C@]12C : EC50 beneath 400 nM, strictly?
A) Not met

Q) Lab note: EC50 threshold 400 nM. Does this compound come in strictly under it? CC(C)[C@H](O)CC[C@@H](C)[C@H]1CC[C@H]2[C@@H]3CC=C4C[C@@](C)(O)CC[C@]4(C)[C@H]3CC[C@]12C
A) Met
